Recorded DC50 values for a group of compounds are listed next.
# SYSTEM NAME: KRAS G12D (Homo sapiens, UniProt P01116, G12D)
# Construct: host or cells: AsPC-1 human pancreatic cancer cells
# Sequence (P01116 1-188 isoform P01116-2 G12D): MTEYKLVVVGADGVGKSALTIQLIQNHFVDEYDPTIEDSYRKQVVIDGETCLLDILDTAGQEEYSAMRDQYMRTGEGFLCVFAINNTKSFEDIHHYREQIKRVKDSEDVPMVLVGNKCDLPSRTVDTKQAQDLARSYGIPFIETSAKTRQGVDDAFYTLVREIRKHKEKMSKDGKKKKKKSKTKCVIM
# TEST PROTOCOL: Test Example 1-2: KRAS degradation action in AsPC-1, Cell ELISA
# Format: cell-based
# CONDITION PARAMETERS: AsPC-1 cells, overnight treatment, corrected with β-actin, 0% = 10 μM Example No. 26 (Example No. 8 for Example Nos. 74 and 75)
Reply with just the number (in nM).

Example cases with answers are listed next.
Cc1ncsc1-c1ccc([C@H](CO)NC(=O)[C@@H]2C[C@@H](O)CN2C(=O)[C@H](C(C)C)n2cc(-c3ccc(COc4c(-c5c(C)c(F)cc6[nH]ncc56)c(C5CC5)cc5c(N6C[C@@H]7C[C@H]6CN7)nc(O[C@H](C)CN(C)C)nc45)cc3)nn2)cc1 : 37
CC[C@@H](C)Oc1nc(N2C[C@@H]3C[C@H]2CN3)c2cc(C3CC3)c(-c3c(C)c(F)cc4[nH]ncc34)c(OCc3ccc(-c4cn([C@H](C(=O)N5C[C@H](O)C[C@H]5C(=O)N[C@@H](CO)c5ccc(-c6scnc6C)cc5)C(C)C)nn4)cc3)c2n1 : 10
CO[C@@H](C)[C@H](C)Oc1nc(N2C[C@@H]3C[C@H]2CN3)c2cc(C3CC3)c(-c3c(C)c(F)cc4[nH]ncc34)c(OCc3ccc(-c4cn([C@H](C(=O)N5C[C@H](O)C[C@H]5C(=O)N[C@@H](CO)c5ccc(-c6scnc6C)cc5)C(C)C)nn4)cc3)c2n1 : 9

Below: the item to evaluate.
input: Provide DC50, tested on KRAS G12D (Homo sapiens, UniProt P01116, G12D), for "CO[C@@H](C)COc1nc(N2C[C@@H]3C[C@H]2CN3)c2cc(C3CC3)c(-c3c(C)c(F)cc4[nH]ncc34)c(OCc3ccc(-c4cn([C@H](C(=O)N5C[C@H](O)C[C@H]5C(=O)N[C@@H](CO)c5ccc(-c6ocnc6C)cc5)C(C)C)nn4)cc3)c2n1" .
output: 16
